System: primary human T-cells (IL-2 induced proliferation, JAK-1/JAK-3, Stat-5)
Assay: Primary Human T-Cell Proliferation Assay Stimulated with IL-2 (CellTiter-Glo)
Format: cell-based
Details: Homo sapiens, T-cell; Table III Example 4
Experimental: In this assay, primary human T-cells derived from peripheral blood and pre-activated through stimulation of the T-cell receptor and CD28, proliferate in culture in response to the cytokine Interleukin-2 (IL-2). […] The primary human T-cells are incubated with the 2,4-pyrimidinediamine compounds in the presence of IL-2 for 72 hours, and at the assay endpoint intracellular ATP concentrations are measured to assess cell viability. […]
pIC50: −log10 of the molar value.
Rule: pIC50 of 6 or more gives T; anything lower gives F.

INPUT: Given the entry C#CCNS(=O)(=O)Cc1cccc(Nc2nc(Nc3cccc(S(N)(=O)=O)c3)ncc2F)c1 , answer whether its pIC50 meets or surpasses 6.
OUTPUT: T

INPUT: Now the compound C#CCNS(=O)(=O)Cc1ccc(Nc2nc(Nc3ccc(C)c(S(N)(=O)=O)c3)ncc2F)cc1
OUTPUT: T

***
INPUT: Given the entry C#CCNS(=O)(=O)c1cccc(Nc2ncc(F)c(Nc3ccc(CNS(=O)(=O)C4CC4)cc3)n2)c1 , answer whether its pIC50 meets or surpasses 6.
OUTPUT: T

INPUT: Now the compound C#CCNS(=O)(=O)Cc1ccc(Nc2nc(Nc3cccc(S(N)(=O)=O)c3)ncc2F)cc1
OUTPUT: T

INPUT: Now the compound C#CCNS(=O)(=O)Cc1ccc(Nc2nc(Nc3ccc(S(N)(=O)=O)cc3)ncc2F)cc1
OUTPUT: T

INPUT: Now the compound C#CCNS(=O)(=O)Cc1cccc(Nc2nc(Nc3ccc(S(N)(=O)=O)cc3)ncc2F)c1
OUTPUT: F

Reference source for all entries: patent US9481654B2
